test system: KB (Oral squamous) tumor cells; test: MTT cytotoxicity assay, KB cells; format: cell-based; settings: 10 nM, 48 hours
* marks the point of attachment. Palmitoyl = CCCCCCCCCCCCCCCC(=O)*; Octanoyl = CCCCCCCC(=O)*; Butyryl = CCCC(=O)*
quantity name: Percentage cytotoxicity (%)
State the answer as a number, implicitly in %.

n-Octanoyl-Leu-Met-Tyr-Pro-Thr-Tyr-Leu-Lys-OH (Octanoyl-LMYPTYLK-OH) [DT-O1]
34.9

input: Name the recorded Percentage cytotoxicity of Palmitoyl-Leu-Met-Tyr-Pro-Thr-Tyr-Leu-Lys-OH (Palmitoyl-LMYPTYLK-OH) [DT-P1] , assay system KB (Oral squamous) tumor cells.
output: 32.0

input: Name the recorded Percentage cytotoxicity of Ac-LMYPTYLK-OH [DT-A1] , assay system KB (Oral squamous) tumor cells.
output: 31.0

input: Name the recorded Percentage cytotoxicity of n-Butanoyl-Leu-Met-Tyr-Pro-Thr-Tyr-Leu-Lys-OH (Butyryl-LMYPTYLK-OH) [DT-B1] , assay system KB (Oral squamous) tumor cells.
output: 25.9

* * *

system: HBL100 (Breast) tumor cells; assay: MTT cytotoxicity assay, HBL100 cells; assay type: cell-based; settings: 100 nM, 48 hours
* marks the point of attachment. Palmitoyl = CCCCCCCCCCCCCCCC(=O)*; Octanoyl = CCCCCCCC(=O)*; Butyryl = CCCC(=O)*
This section presents substances with their documented Percentage cytotoxicity values.
State the answer as a number, implicitly in %.

Ac-LMYPTYLK-OH [DT-A1]
30.5

input: Using the record for Palmitoyl-Leu-Met-Tyr-Pro-Thr-Tyr-Leu-Lys-OH (Palmitoyl-LMYPTYLK-OH) [DT-P1] , state its measured Percentage cytotoxicity.
output: 33.3

input: Using the record for n-Butanoyl-Leu-Met-Tyr-Pro-Thr-Tyr-Leu-Lys-OH (Butyryl-LMYPTYLK-OH) [DT-B1] , state its measured Percentage cytotoxicity.
output: 33.9

input: Using the record for n-Octanoyl-Leu-Met-Tyr-Pro-Thr-Tyr-Leu-Lys-OH (Octanoyl-LMYPTYLK-OH) [DT-O1] , state its measured Percentage cytotoxicity.
output: 32.8

* * *

System: PA-1 (Ovary) tumor cells
Experiment: MTT cytotoxicity assay, PA-1 cells
Assay type: cell-based
Settings: 1 μM, 48 hours
Text: The cytotoxic effect of Lipo peptide analogs, DT-A1 (SEQ ID NO: 2), DT-B1 (SEQ ID NO: 3), DT-01 (SEQ ID NO: 4), DT-M1 (SEQ ID NO: 5) and DT-P1 (SEQ ID NO: 6) was studied by MTT assay which is based on the principle of uptake of MTT [3-[4,5-dimethylthiazol-2-yl]-2,5-diphenyl tetrazolium bromide], a tetrazolium salt by the metabolically active cells where it is metabolized by active mitochondria into a blue colored formazan product which can be read spectrophotometrically. […]
* marks the point of attachment. Palmitoyl = CCCCCCCCCCCCCCCC(=O)*; Octanoyl = CCCCCCCC(=O)*; Butyryl = CCCC(=O)*
This section presents substances with their documented Percentage cytotoxicity values.
State the answer as a number, implicitly in %.

Example entries begin here.
n-Octanoyl-Leu-Met-Tyr-Pro-Thr-Tyr-Leu-Lys-OH (Octanoyl-LMYPTYLK-OH) [DT-O1]
6.0
Ac-LMYPTYLK-OH [DT-A1]
6.9
n-Butanoyl-Leu-Met-Tyr-Pro-Thr-Tyr-Leu-Lys-OH (Butyryl-LMYPTYLK-OH) [DT-B1]
33.7

Attention now turns to another entry.
input: Using the record for Palmitoyl-Leu-Met-Tyr-Pro-Thr-Tyr-Leu-Lys-OH (Palmitoyl-LMYPTYLK-OH) [DT-P1] , state its measured Percentage cytotoxicity.
output: 21.7

* * *

system: ECV304 (Endothelial) cells; test: MTT cytotoxicity assay, ECV304 cells; assay type: cell-based; details: 100 nM, 48 hours
* marks the point of attachment. Palmitoyl = CCCCCCCCCCCCCCCC(=O)*; Octanoyl = CCCCCCCC(=O)*; Butyryl = CCCC(=O)*
quantity name: Percentage cytotoxicity (%)
State the answer as a number, implicitly in %.

n-Octanoyl-Leu-Met-Tyr-Pro-Thr-Tyr-Leu-Lys-OH (Octanoyl-LMYPTYLK-OH) [DT-O1]
24.9
Palmitoyl-Leu-Met-Tyr-Pro-Thr-Tyr-Leu-Lys-OH (Palmitoyl-LMYPTYLK-OH) [DT-P1]
31.9
n-Butanoyl-Leu-Met-Tyr-Pro-Thr-Tyr-Leu-Lys-OH (Butyryl-LMYPTYLK-OH) [DT-B1]
31.9

Attention now turns to another entry.
input: Using the record for Ac-LMYPTYLK-OH [DT-A1] , state its measured Percentage cytotoxicity.
output: 22.0

* * *

tested on: KB (Oral squamous) tumor cells; test: MTT cytotoxicity assay, KB cells; format: cell-based; settings: 100 nM, 48 hours
* marks the point of attachment. Palmitoyl = CCCCCCCCCCCCCCCC(=O)*; Octanoyl = CCCCCCCC(=O)*; Butyryl = CCCC(=O)*
quantity name: Percentage cytotoxicity (%)
State the answer as a number, implicitly in %.

Example entries begin here.
n-Butanoyl-Leu-Met-Tyr-Pro-Thr-Tyr-Leu-Lys-OH (Butyryl-LMYPTYLK-OH) [DT-B1]
18.9
Ac-LMYPTYLK-OH [DT-A1]
26.9
n-Octanoyl-Leu-Met-Tyr-Pro-Thr-Tyr-Leu-Lys-OH (Octanoyl-LMYPTYLK-OH) [DT-O1]
26.9

input: Name the recorded Percentage cytotoxicity of Palmitoyl-Leu-Met-Tyr-Pro-Thr-Tyr-Leu-Lys-OH (Palmitoyl-LMYPTYLK-OH) [DT-P1] , assay system KB (Oral squamous) tumor cells.
output: 23.0

* * *

test system: U87MG (Glioblastoma) tumor cells; assay: MTT cytotoxicity assay, U87MG cells; format: cell-based; details: 1 nM, 48 hours
quantity name: Percentage cytotoxicity (%)
State the answer as a number, implicitly in %.

input: Using the record for Ac-LMYPTYLK-OH [DT-A1] , state its measured Percentage cytotoxicity.
output: 10.4

* * *

This section presents substances with their documented Percentage cytotoxicity values.
tested on: PA-1 (Ovary) tumor cells; experiment: MTT cytotoxicity assay, PA-1 cells; format: cell-based; settings: 100 nM, 48 hours
* marks the point of attachment. Palmitoyl = CCCCCCCCCCCCCCCC(=O)*; Octanoyl = CCCCCCCC(=O)*; Butyryl = CCCC(=O)*
State the answer as a number, implicitly in %.

Example entries begin here.
n-Octanoyl-Leu-Met-Tyr-Pro-Thr-Tyr-Leu-Lys-OH (Octanoyl-LMYPTYLK-OH) [DT-O1]
22.6
n-Butanoyl-Leu-Met-Tyr-Pro-Thr-Tyr-Leu-Lys-OH (Butyryl-LMYPTYLK-OH) [DT-B1]
38.5
Ac-LMYPTYLK-OH [DT-A1]
18.5

Attention now turns to another entry.
input: Using the record for Palmitoyl-Leu-Met-Tyr-Pro-Thr-Tyr-Leu-Lys-OH (Palmitoyl-LMYPTYLK-OH) [DT-P1] , state its measured Percentage cytotoxicity.
output: 25.6

* * *

test system: U87MG (Glioblastoma) tumor cells; test: MTT cytotoxicity assay, U87MG cells; assay type: cell-based; settings: 100 nM, 48 hours
* marks the point of attachment. Palmitoyl = CCCCCCCCCCCCCCCC(=O)*; Octanoyl = CCCCCCCC(=O)*; Butyryl = CCCC(=O)*
This section presents substances with their documented Percentage cytotoxicity values.

Example entries begin here.
Palmitoyl-Leu-Met-Tyr-Pro-Thr-Tyr-Leu-Lys-OH (Palmitoyl-LMYPTYLK-OH) [DT-P1]
32.9 ± 2.5%
n-Octanoyl-Leu-Met-Tyr-Pro-Thr-Tyr-Leu-Lys-OH (Octanoyl-LMYPTYLK-OH) [DT-O1]
28.6 ± 1.2%
n-Butanoyl-Leu-Met-Tyr-Pro-Thr-Tyr-Leu-Lys-OH (Butyryl-LMYPTYLK-OH) [DT-B1]
30.7 ± 1.7%

input: Using the record for Ac-LMYPTYLK-OH [DT-A1] , state its measured Percentage cytotoxicity.
output: 26.9 ± 1.5%

* * *

system: HeP2 (Laryngeal) tumor cells; experiment: MTT cytotoxicity assay, HeP2 cells; format: cell-based; conditions: 100 nM, 48 hours
* marks the point of attachment. Palmitoyl = CCCCCCCCCCCCCCCC(=O)*; Octanoyl = CCCCCCCC(=O)*; Butyryl = CCCC(=O)*
quantity name: Percentage cytotoxicity (%)
State the answer as a number, implicitly in %.

Example entries begin here.
Ac-LMYPTYLK-OH [DT-A1]
21.9
n-Butanoyl-Leu-Met-Tyr-Pro-Thr-Tyr-Leu-Lys-OH (Butyryl-LMYPTYLK-OH) [DT-B1]
14.9
Palmitoyl-Leu-Met-Tyr-Pro-Thr-Tyr-Leu-Lys-OH (Palmitoyl-LMYPTYLK-OH) [DT-P1]
28.9

Attention now turns to another entry.
input: Name the recorded Percentage cytotoxicity of n-Octanoyl-Leu-Met-Tyr-Pro-Thr-Tyr-Leu-Lys-OH (Octanoyl-LMYPTYLK-OH) [DT-O1] , assay system HeP2 (Laryngeal) tumor cells.
output: 17.9
